Target: Mannose-6-phosphate isomerase (Homo sapiens)
Experiment: inhibitors of human PMI, primary screen, biochemical, fluorescence intensity, coupled assay (AID 1209)
Conditions: purified PMI enzyme, at 20 µM
In all, about 190,000 compounds went through this assay and about 810 (0.43%) were called active. Cut-off read from the data, not from the text of the source: active = inhibition above about 50%; inactive = the rest. The full list was thinned out, with actives kept by preference.
Possible outcomes: active, inactive

| Compound | Classification |
| --- | --- |
| COC(=O)C(C(=O)OC)=C(/C=C/C=C/N(C)C)N(C)C | inactive |
| CCC(=O)NC(=S)Nc1ccc(NC(=O)COc2ccccc2)cc1 | inactive |
| CCc1cccc(CC)c1-n1c(SCC(=O)c2c(N)n(C)c(=O)n(C)c2=O)nnc1-c1cccnc1 | inactive |
| CC(C)(C)c1nc(SCC(=O)N2CC(=O)Nc3ccccc32)c2ccccc2n1 | inactive |
| O=C(Nc1ccc(N=Nc2ccccc2)cc1)c1ccccc1Cl | inactive |
| CCC(=O)NC(=S)Nc1ccc(NC(=O)COc2ccc(Cl)cc2Cl)cc1 | inactive |
| CCc1cc2c(C)cc(C)cc2nc1SCC(=O)Nc1cc(C)on1 | inactive |
| Cc1ccc(N2C(=O)CC(SCC(=O)Nc3ccc(S(N)(=O)=O)cc3)C2=O)cc1 (configuration not stated) | inactive |
| O=C(C1=C[C@@H](C2CCCCC2)C[C@@H](OCc2ccc(CO)cc2)O1)N1CCN(Cc2ccc3c(c2)OCO3)CC1 | inactive |
| O=C(Nc1ccc(N=Nc2ccccc2)cc1)c1ccc(Cl)cc1Cl | active |
| N#Cc1c(SCC(N)=O)nc(-c2ccccc2)c2c1CCCC2 | inactive |
| O=C(OCc1cc2ccccc2[nH]c1=O)C1CCCCC1 | inactive |
| CCOc1ncccc1C(=O)Nc1nc(SC)ns1 | inactive |
| O=C(CSC1CC(=O)N(c2ccc(C(=O)O)cc2)C1=O)Nc1ccc(Cl)cc1 (configuration not stated) | inactive |
| Brc1ccc(-c2nnc3sc(CN4CCC5(CC4)OCCO5)cn23)cc1 | inactive |
| O=C(N/N=C/c1ccncc1)c1nc(-c2ccccc2)n2c1CCCCC2 | inactive |
| O=C(Nc1ccc(N=Nc2ccccc2)cc1)c1cccc(Cl)c1 | inactive |
| c1ccc(-c2nnc3sc(CN4CCC5(CC4)OCCO5)cn23)cc1 | inactive |
| CCC(=O)NC(=S)Nc1ccc(NC(=O)COc2ccc(Cl)c(C)c2)cc1 | active |
| O=C(Nc1nc(-c2ccc(Oc3ccccc3)cc2)cs1)C1=COCCO1 | inactive |
| Cc1cccc(C)c1NC(=O)CSc1nnc([C@H](C)NC(=O)OC(C)(C)C)o1 | inactive |
| CCn1c(SCC(=O)c2ccc(CNC(C)=O)o2)nnc1-c1cccs1 | inactive |
